Entries and their log10 of EC50 values follow.
system: Plasmodium falciparum; experiment: ST_JUDE: Plasmodium falciparum K1 EC50 (uM) as measured by SYBR green dye; format: functional, organism-based
assay endpoint: log10 of EC50 (log10 of the value in µM)

>>> readout_number("CCc1ccc(C(O)(CCC(C)C)C(CN2CCOCC2)c2ccccc2)cc1 (stereo not given)")
0.30
>>> readout_number("O=C(Nc1ccc(Br)cc1)Nc1cccc(Cl)c1")
0.74
>>> readout_number("C=CCN(CC=C)CCN1CCN(C(=O)Nc2cc(C(F)(F)F)cc(C(F)(F)F)c2)CC1")
-0.27
>>> readout_number("Cc1ccc(O)c(NC(=O)c2noc3c2CC(C(C)(C)C)CC3)c1 (stereo not given)")
-0.32
>>> readout_number("CCCCNc1ccc2cccc(O)c2n1")
0.64
>>> readout_number("CN(C)CCN(C)C(=O)c1cccc(OC2CCN(Cc3ccccc3O)CC2)c1")
0.71
>>> readout_number("Cc1cccc(C(=O)ONC(=N)Cc2cccc3ccccc23)c1")
0.42
>>> readout_number("CCN(CC)CCN1C(=O)c2oc3ccccc3c(=O)c2C1c1cccc(OC)c1 (stereo not given)")
0.02
>>> readout_number("CCN(CC)CCn1c(=N)n(CC(O)COc2ccc(Cl)cc2Cl)c2ccccc21 (stereo not given)")
0.46
>>> readout_number("CCCN(CCC)CCCNC(=S)Nc1ccc2nc(N3CCN(C)CC3)cc(C)c2c1")
0.72
>>> readout_number("CC(=O)N(C1=C(N2CCCC2)C(=O)c2ccccc2C1=O)C1CCCCC1")
-0.40
>>> readout_number("Cc1cccc(CN2C(=O)/C(=C\\c3ccc(C(=O)NC4CCCC4)cc3)Sc3ccccc32)c1")
0.67
>>> readout_number("O=C(N/N=C/c1ccc([N+](=O)[O-])o1)c1ccc(O)cc1 [NIFUROXAZIDE]")
0.58
>>> readout_number("CCCCCCCn1c(=N)n(CC(O)COc2ccccc2)c2ccccc21 (stereo not given)")
0.16
>>> readout_number("CCOc1cccc(C(=O)Nc2nonc2-c2ccc(OCC)c(OCC)c2)c1")
-0.66
>>> readout_number("Cc1ccc(C)c(N2CCN(Cc3cc(Cl)ccc3O)CC2)c1")
-0.58
>>> readout_number("COC(=O)c1c(N)n(-c2ccc(F)cc2F)c2nc3ccccc3nc12")
0.60
>>> readout_number("Oc1ccc(Br)cc1CN1CCN(Cc2ccccc2C(F)(F)F)CC1")
-0.35
>>> readout_number("COc1ccccc1/N=C1\\C=C(NS(=O)(=O)c2ccc(C(C)C)cc2)c2ccccc2C1=O")
-0.88
>>> readout_number("N=C(N)N/N=C/c1ccc(OCc2ccc(Cl)cc2Cl)cc1")
0.63
>>> readout_number("CC(C)(C)c1ccc(-c2cc(-c3cc(Cl)ccc3O)[nH]n2)cc1")
0.13
>>> readout_number("COc1ccccc1C1CC(c2ccccc2)=NN1C(=O)c1ccco1 (stereo not given)")
0.64
>>> readout_number("CCN(CC)CCN1C(=O)c2ccccc2NC1c1ccc(Cl)cc1 (stereo not given)")
-0.28
>>> readout_number("CCOc1ccccc1C(=O)NCCc1csc(-c2ccc(OC)cc2)n1")
0.88
